# Procedure Text: PK parameters in male mice (Table 9)
# Format: in vivo
# Condition Set: IV 1 mg/kg
# Experimental: The pharmacokinetics (PK) of representative Compounds of the Disclosure were evaluated in mice or rats to provide an assessment of their oral bioavaibility. All animal experiments were performed under the guidelines of the University of Michigan Committee for Use and Care of Animals and using an approved animal protocol.
In this section, each of the molecules is paired with its reported Vss.
Write it as a number; the unit L/kg goes unstated.

The cases that follow already have their Vss on record.
Exercise: Given the entry CN(c1ccc(C#N)c(Cl)c1)[C@H]1CC[C@H](NC(=O)c2ccc(N3CCN(CC4CN(c5ccc6c(c5)C(=O)N(C5CCC(=O)NC5=O)C6=O)C4)CC3)cc2)CC1 (some centres unmarked) , report its measured Vss.
Solution: 3.92

Exercise: Another molecule to look at: CN(c1ccc(C#N)c(Cl)c1)[C@H]1CC[C@H](NC(=O)c2ccc(N3CCC(CN4CCN(c5ccc6c(c5)C(=O)N(C5CCC(=O)NC5=O)C6=O)CC4)CC3)cc2)CC1 (some centres unmarked)
Solution: 17.6

***
Exercise: Given the entry CN(c1ccc(C#N)c(Cl)c1)[C@H]1CC[C@H](NC(=O)c2ccc(N3CCC(N4CCN(c5ccc6c(c5)C(=O)N(C5CCC(=O)NC5=O)C6=O)CC4)CC3)cc2)CC1 (some centres unmarked) , report its measured Vss.
Solution: 2.73

Exercise: Another molecule to look at: CN(c1ccc(C#N)c(Cl)c1)[C@H]1CC[C@H](NC(=O)c2ccc(N3CC(CN4CCN(c5ccc6c(c5)C(=O)N(C5CCC(=O)NC5=O)C6=O)CC4)C3)cc2)CC1 (some centres unmarked)
Solution: 8.25

Exercise: Another molecule to look at: CN(c1ccc(C#N)c(Cl)c1)[C@H]1CC[C@H](NC(=O)c2ccc(N3CC(N4CCN(c5ccc6c(c5)C(=O)N(C5CCC(=O)NC5=O)C6=O)CC4)C3)cc2)CC1 (some centres unmarked)
Solution: 2.1

====

# Procedure Text: PK parameters in male ICR mice
# Format: in vivo
# Condition Set: mouse, in vivo, PO 5 mg/kg, read-out: AUC0-t
Experimental Readout: AUC(0-t) (ng·h/mL)
Write it as a number; the unit ng·h/mL goes unstated.

Exercise: Given the entry CC1(C)[C@H](NC(=O)c2ccc(N3CCN(C4CN(c5ccc6c(c5)C(=O)N(C5CCC(=O)NC5=O)C6=O)C4)CC3)cc2)C(C)(C)[C@H]1Oc1ccc(C#N)c(Cl)c1 (stereo partly shown) [Cpd. No. 113] , report its measured AUC(0-t).
Solution: 22700

====

# Procedure Text: PK parameters in male ICR mice
# Format: in vivo
# Condition Set: PO 5 mg/kg
Experimental Readout: F (%)
Write it as a number; the unit % goes unstated.

Exercise: Given the entry CC1(C)[C@H](NC(=O)c2ccc(N3CCN(CC4CCN(c5ccc6c(c5)C(=O)N(C5CCC(=O)NC5=O)C6=O)CC4)CC3)cc2)C(C)(C)[C@H]1Oc1ccc(C#N)c(Cl)c1 (stereo partly shown) [Cpd. No. 46] , report its measured F.
Solution: 67.3

***
Exercise: Given the entry CC1(C)[C@H](NC(=O)c2ccc(N3CCN(CC4CN(c5ccc6c(c5)C(=O)N(C5CCC(=O)NC5=O)C6=O)C4)CC3)cc2)C(C)(C)[C@H]1Oc1ccc(C#N)c(Cl)c1 (stereo partly shown) [Cpd. No. 112] , report its measured F.
Solution: 74.7

Exercise: Another compound to look at: CC1(C)[C@H](NC(=O)c2ccc(N3CCN(C4CN(c5ccc6c(c5)C(=O)N(C5CCC(=O)NC5=O)C6=O)C4)CC3)cc2)C(C)(C)[C@H]1Oc1ccc(C#N)c(Cl)c1 (stereo partly shown) [Cpd. No. 113]
Solution: 62.2

Exercise: Another compound to look at: CC1(C)[C@H](NC(=O)c2ccc(N3CCN(C4CCN(c5ccc6c(c5)C(=O)N(C5CCC(=O)NC5=O)C6=O)CC4)CC3)cc2)C(C)(C)[C@H]1Oc1ccc(C#N)c(Cl)c1 (stereo partly shown) [Cpd. No. 114]
Solution: 37.0

====

# Procedure Text: PK parameters in male mice (Table 9)
# Type: in vivo
# Condition Set: PO 3 mg/kg
# Method: The pharmacokinetics (PK) of representative Compounds of the Disclosure were evaluated in mice or rats to provide an assessment of their oral bioavaibility. All animal experiments were performed under the guidelines of the University of Michigan Committee for Use and Care of Animals and using an approved animal protocol.
Experimental Readout: Tmax (h)
Write it as a number; the unit h goes unstated.

Exercise: Given the entry CN(c1ccc(C#N)c(Cl)c1)[C@H]1CC[C@H](NC(=O)c2ccc(N3CC(N4CCN(c5ccc6c(c5)C(=O)N(C5CCC(=O)NC5=O)C6=O)CC4)C3)cc2)CC1 (stereo partly drawn) [compound 240] , report its measured Tmax.
Solution: 4.7

Exercise: Another molecule to look at: CN(c1ccc(C#N)c(Cl)c1)[C@H]1CC[C@H](NC(=O)c2ccc(N3CCC(N4CCN(c5ccc6c(c5)C(=O)N(C5CCC(=O)NC5=O)C6=O)CC4)CC3)cc2)CC1 (stereo partly drawn) [compound 230]
Solution: 5.3

Exercise: Another molecule to look at: CN(c1ccc(C#N)c(Cl)c1)[C@H]1CC[C@H](NC(=O)c2ccc(N3CCN(CC4CN(c5ccc6c(c5)C(=O)N(C5CCC(=O)NC5=O)C6=O)C4)CC3)cc2)CC1 (stereo partly drawn) [compound 237]
Solution: 5.3

====

# Procedure Text: PK parameters in male mice (Table 9)
# Assay type: in vivo
# Condition Set: PO 3 mg/kg vs IV 1 mg/kg
Label Satisfied when F >= 30%; otherwise Not satisfied.

Example results:
Exercise: Say whether CN(c1ccc(C#N)c(Cl)c1)[C@H]1CC[C@H](NC(=O)c2ccc(N3CC(CN4CCN(c5ccc6c(c5)C(=O)N(C5CCC(=O)NC5=O)C6=O)CC4)C3)cc2)CC1 (stereo partly shown) [compound 239] shows F of 30% or more.
Solution: Satisfied

Exercise: Another compound to look at: CN(c1ccc(C#N)c(Cl)c1)[C@H]1CC[C@H](NC(=O)c2ccc(N3CCC(CN4CCN(c5ccc6c(c5)C(=O)N(C5CCC(=O)NC5=O)C6=O)CC4)CC3)cc2)CC1 (stereo partly shown) [compound 234]
Solution: Satisfied

Exercise: Another compound to look at: CN(c1ccc(C#N)c(Cl)c1)[C@H]1CC[C@H](NC(=O)c2ccc(N3CC(N4CCN(c5ccc6c(c5)C(=O)N(C5CCC(=O)NC5=O)C6=O)CC4)C3)cc2)CC1 (stereo partly shown) [compound 240]
Solution: Satisfied

***
Exercise: Say whether N#Cc1ccc(O[C@H]2CC[C@H](NC(=O)c3ccc(N4CCN(C5CCN(c6ccc7c(c6)C(=O)N(C6CCC(=O)NC6=O)C7=O)CC5)CC4)cc3)CC2)cc1Cl (stereo partly shown) [compound 222] shows F of 30% or more.
Solution: Satisfied

Exercise: Another compound to look at: CN(c1ccc(C#N)c(Cl)c1)[C@H]1CC[C@H](NC(=O)c2ccc(N3CCN(C4CCN(c5ccc6c(c5)C(=O)N(C5CCC(=O)NC5=O)C6=O)CC4)CC3)cc2)CC1 (stereo partly shown) [Cpd. No. 235]
Solution: Not satisfied

Exercise: Another compound to look at: CN(c1ccc(C#N)c(Cl)c1)[C@H]1CC[C@H](NC(=O)c2ccc(N3CCC(N4CCN(c5ccc6c(c5)C(=O)N(C5CCC(=O)NC5=O)C6=O)CC4)CC3)cc2)CC1 (stereo partly shown) [compound 230]
Solution: Satisfied

====

# Procedure Text: PK parameters in male ICR mice
# Format: in vivo
# Condition Set: mouse, in vivo, IV 2 mg/kg, read-out: Vss
Experimental Readout: Vd (L/kg)
Write it as a number; the unit L/kg goes unstated.

Exercise: Given the entry CC1(C)[C@H](NC(=O)c2ccc(N3CCN(C4CN(c5ccc6c(c5)C(=O)N(C5CCC(=O)NC5=O)C6=O)C4)CC3)cc2)C(C)(C)[C@H]1Oc1ccc(C#N)c(Cl)c1 (stereo partly shown) , report its measured Vd.
Solution: 1.7

====

# Procedure Text: PK parameters in male ICR mice
# Assay type: in vivo
# Condition Set: mouse, in vivo, PO 5 mg/kg, read-out: Cmax
Experimental Readout: Cmax
Note: state the figure and append the unit.

Exercise: Given the entry CC1(C)[C@H](NC(=O)c2ccc(N3CCN(C4CN(c5ccc6c(c5)C(=O)N(C5CCC(=O)NC5=O)C6=O)C4)CC3)cc2)C(C)(C)[C@H]1Oc1ccc(C#N)c(Cl)c1 (stereo partly shown) [Cpd. No. 113] , report its measured Cmax.
Solution: 1820 ng/mL

====

# Procedure Text: PK parameters in male mice (Table 9)
# Assay type: in vivo
# Condition Set: IV 1 mg/kg
In this section, each of the compounds is paired with its reported AUC(0-t).
Write it as a number; the unit ng·h/mL goes unstated.

Exercise: Given the entry CN(c1ccc(C#N)c(Cl)c1)[C@H]1CC[C@H](NC(=O)c2ccc(N3CC(N4CCN(c5ccc6c(c5)C(=O)N(C5CCC(=O)NC5=O)C6=O)CC4)C3)cc2)CC1 (stereo partly shown) , report its measured AUC(0-t).
Solution: 4234

Exercise: Another compound to look at: CN(c1ccc(C#N)c(Cl)c1)[C@H]1CC[C@H](NC(=O)c2ccc(N3CCN(CC4CN(c5ccc6c(c5)C(=O)N(C5CCC(=O)NC5=O)C6=O)C4)CC3)cc2)CC1 (stereo partly shown)
Solution: 1226

Exercise: Another compound to look at: CN(c1ccc(C#N)c(Cl)c1)[C@H]1CC[C@H](NC(=O)c2ccc(N3CCC(N4CCN(c5ccc6c(c5)C(=O)N(C5CCC(=O)NC5=O)C6=O)CC4)CC3)cc2)CC1 (stereo partly shown)
Solution: 2857

# evaluate next
Exercise: Given the entry CN(c1ccc(C#N)c(Cl)c1)[C@H]1CC[C@H](NC(=O)c2ccc(N3CCN(C4CCN(c5ccc6c(c5)C(=O)N(C5CCC(=O)NC5=O)C6=O)CC4)CC3)cc2)CC1 (stereo partly shown) , report its measured AUC(0-t).
Solution: 3366
